experiment: Novel Modifiers of Survival Motor Neuron (SMN) Protein: Gene Identification via Genome-wide siRNA Screen; conditions: HEK293T SMN2-luciferase reporter, siRNA knockdown, 72 h; actives lie on both sides;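 further: luminescence tracks full-length SMN protein made from the SMN2 reporter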
Out of some 31,000 sequences screened, about 1,400 (4.5%) were called active.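 How the source made its calls: active means median seed-adjusted z-score above 1 or below -1; inactive means the rest.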 The sample as a whole holds a higher share of actives than the screen did.
Outcome codes: label 1 (active), label 0 (inactive)

[[record]]
sequencerecord = "GUGGUGCAGUUUUUCGUAATT against THOC2"
grouplabel = "label 1"

[[record]]
sequencerecord = "UCUCCUUCUUCGGAACGAATT against SCAMP5"
grouplabel = "label 0"

[[record]]
sequencerecord = "CCAAAAUGUUUCAUCCAAATT against UBE2B"
grouplabel = "label 0"

[[record]]
sequencerecord = "CCAGAAAACUUGCGAAACATT against RFX4"
grouplabel = "label 0"

[[record]]
sequencerecord = "CAUCCCAGAUCAAACUGUATT against TFAP2A"
grouplabel = "label 0"

[[record]]
sequencerecord = "GCAUAGAUGUGGAUAGCUUTT against CFTR"
grouplabel = "label 1"

[[record]]
sequencerecord = "GGAUCUGGUUCAACUUGGATT against FUT3"
grouplabel = "label 0"

[[record]]
sequencerecord = "CACUGUAACGACUUCCUUATT against CCIN"
grouplabel = "label 0"

[[record]]
sequencerecord = "GGAAAGCAACAUACAGACATT against FABP6"
grouplabel = "label 0"

[[record]]
sequencerecord = "GCAGCAUGAGAAUGUCAAATT against GPD1"
grouplabel = "label 0"

[[record]]
sequencerecord = "CCCUAUGAGUGUCAACAAUTT against ZNF799"
grouplabel = "label 1"

[[record]]
sequencerecord = "GGAAAUGAGUGUCUGAACATT against CHMP6"
grouplabel = "label 1"

[[record]]
sequencerecord = "CCUUAGGAAUGAAAUCGCUTT against SIPA1L1"
grouplabel = "label 0"

[[record]]
sequencerecord = "CAUACUUUUUGGAUAGACATT against MTX1"
grouplabel = "label 0"

[[record]]
sequencerecord = "CCAUGAAUUCUUACUUUUATT against VAC14"
grouplabel = "label 0"

[[record]]
sequencerecord = "GACUGGGUCUGGUAAAACATT against DHX15"
grouplabel = "label 1"

[[record]]
sequencerecord = "ACACCUACAUGAUGACGCATT against EVX2"
grouplabel = "label 0"

[[record]]
sequencerecord = "GAGACAACCUGCAACGACATT against GDI1"
grouplabel = "label 0"

[[record]]
sequencerecord = "GGAGAUCUAUUCAAUGGGATT against SRPK1"
grouplabel = "label 0"

[[record]]
sequencerecord = "GUUGUUCCUUUGUAUCCAATT against DHX32"
grouplabel = "label 0"

[[record]]
sequencerecord = "GUGUAUCUAUGGAAGAGCATT against PSMD4"
grouplabel = "label 1"

[[record]]
sequencerecord = "GGACUUACGUGGAAGUAGATT against PLCB1"
grouplabel = "label 0"

[[record]]
sequencerecord = "GGAAGACUAGGAAUCGGAATT against NYX"
grouplabel = "label 0"

[[record]]
sequencerecord = "GGAGCAGACGGUGACCAAATT against CIB3"
grouplabel = "label 0"

[[record]]
sequencerecord = "GCAAGUCCACGUUCCUCAATT against GNA12"
grouplabel = "label 0"

[[record]]
sequencerecord = "CACUGACUAUUAUCAUUCATT against WHSC1L1"
grouplabel = "label 0"

[[record]]
sequencerecord = "CCACUACCCUGAGAACUUUTT against TOP3B"
grouplabel = "label 1"

[[record]]
sequencerecord = "GGGUCAUCAGUAGCAUUGATT against YWHAG"
grouplabel = "label 1"

[[record]]
sequencerecord = "GAGUUAGGGAAAAAGCGUATT against ANK3"
grouplabel = "label 0"

[[record]]
sequencerecord = "GAGUGGAAGUUAUCUGUCATT against WBSCR22"
grouplabel = "label 0"

[[record]]
sequencerecord = "CGAGAGGUGUAUCAAUAUATT against LIN7A"
grouplabel = "label 1"

[[record]]
sequencerecord = "CAAGAGCAAGCAAACCUAATT against OLR1"
grouplabel = "label 0"

[[record]]
sequencerecord = "GUAGAUAUGUGGAAACGGATT against FAM48A"
grouplabel = "label 0"

[[record]]
sequencerecord = "GCUGAGGAGUCAGUGCAUGTT against TNFRSF18"
grouplabel = "label 0"

[[record]]
sequencerecord = "CCAUGUUAGAAGCCCGGAATT against ZNF385D"
grouplabel = "label 0"

[[record]]
sequencerecord = "GGACGUGGACCAUUACUGUTT against LITAF"
grouplabel = "label 0"

[[record]]
sequencerecord = "GCAUCUCUAUUGUAGCCCUTT against GHRHR"
grouplabel = "label 0"


Where do these numbers come from? They come from PubChem BioAssay AID1347426.
